EXPERIMENTAL DETAILS: NCI Yeast Anticancer Drug Screen. Data for the rad52 strain (AID 147);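 also: 0% = growth of vehicle-treated control cultures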
APPLIED CONDITIONS: S. cerevisiae rad52 mutant growth inhibition; at 11.0 µM; hits give high values
Compounds without any hit were thinned out: in the full panel of roughly 79,000, 15% have a hit.
Catalogue of compounds with associated growth inhibition
# value in %; strip the unit string

| COMPOUND | READOUT NAME | VALUE UNITS | DATA VALUE |
| --- | --- | --- | --- |
| Oc1ccc(O)c(Cc2ccccc2)c1 | growth inhibition | % | 89 |
| O=[N+]([O-])c1cccc2nc3ccccc3c(NCCC[N+]3([O-])CCCCC3)c12 | growth inhibition | % | 80 |

Would you mind telling me what growth inhibition value was observed for N#CC1=C(N)N(/N=C/c2ccccc2)C(c2ccccc2)C1(C#N)C#N (stereo not given) ?
78

Moving on to the next compound: COC(=O)CC1CCc2c(ccc3ccccc23)C1(C)C(=O)OC (stereo not given)
14

Moving on to the next compound: Cc1c(C)c(C)c(CSC(=N)N)c(C)c1C
-12

Moving on to the next compound: Cc1ccc(NC(=O)/C(CC2N=c3c(ccc4c(O)c5ccccc5c(O)c34)=NC2O)=N/NC(C)(C)C)cc1 (stereo not given)
33

Moving on to the next compound: CN(C)[C@@H]1C(=O)C(C(N)=O)=C(O)[C@@]2(O)C(=O)C3=C(O)c4c(O)cccc4C[C@H]3C[C@@H]12
17

Moving on to the next compound: O=C(/C=C(/c1ccccc1)N1CCCCC1)c1ccccc1
5

Moving on to the next compound: c1ccc2c(c1)sc1c3cnccc3ccc21
62

Moving on to the next compound: O=C(NCCCl)Sc1ccc(Cl)cc1
10

Moving on to the next compound: CC(C)(C)CC(C)(C)c1cc(O)c(O)c(CN2CCCCC2)c1
1

Moving on to the next compound: CC1CC(C)(C)CC(OCCN2CCCCC2)(c2ccccc2)C1 (stereo not given)
15

---

EXPERIMENTAL DETAILS: NCI Yeast Anticancer Drug Screen. Data for the rad50 strain (AID 155);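 also: 0% = growth of vehicle-only cultures of the same strain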
APPLIED CONDITIONS: S. cerevisiae rad50 strain growth inhibition; at 50.0 µM; hits give high values
Compounds without any hit were thinned out: in the full panel of roughly 79,000, 15% have a hit.
If the reported growth inhibition equals or exceeds 70%, assign Met. If not, assign Not met.

Solved entries (count: 3):
| MOLECULE | ANSWER LABEL |
| --- | --- |
| CC1SC2(C(=O)Nc3ccc(Cl)cc32)N(c2ccc(Cl)cc2)C1=O (stereo not given) | Met |
| CCC(C)OC(=O)Nc1ccc(C)c(NC(=O)OC(C)CC)c1 (stereo not given) | Not met |
| C[CH2][Sn]([CH2]C)([O]C(=O)C(N)Cc1ccccc1)[O]C(=O)C(N)Cc1ccccc1 (stereo not given) | Not met |

Shifting focus to the molecule that follows.
Entry CCCCN(CCCC)C(=O)/C=C/c1ccccc1 : is its growth inhibition no less than 70%?
Met

---

Catalogue of compounds with associated growth inhibition
EXPERIMENTAL DETAILS: NCI Yeast Anticancer Drug Screen. Data for the rad14 strain (AID 159);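 also: 0% = growth of vehicle-treated control cultures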
APPLIED CONDITIONS: S. cerevisiae rad14 strain growth inhibition; at 3.7 µM; hits give high values
This is part of a sample that, as a whole, favours compounds with a hit. Of some 79,000 tested, about 15% had one in any assay. Active and inactive are the calls of the source. Cut-off read from the data, not from the text of the source: active = growth inhibition above about 70%; inactive = the rest.

Would you mind telling me what growth inhibition value was observed for CC1(C)CC(=O)C(/C=N/c2nc(-c3ccccc3)cs2)=C(O)C1 ?
5% (inactive)

Moving on to the next compound: O=[N+]([O-])c1ccc(N/N=C/Cc2ccccc2)c([N+](=O)[O-])c1
-2% (inactive)
